test system: MALME-3M melanoma; assay: NCI-60 one-dose screen, 48 h (100 = growth as untreated, 0 = no growth, -100 = all killed); details: 10 µM unless noted
The panel holds about 83,000 compounds, 20% with a hit somewhere; the sample as a whole holds those more often. The source made the active and inactive calls. How the source made its calls: active means growth percent below 10; inactive means the rest.
readout-kind: growth

Worked examples, 4 compounds total:
[
  {
    "mol-smiles": "N#Cc1c(-c2ccc(Cl)cc2)nc(NN2C(=O)c3ccccc3C2=O)nc1N1CCOCC1",
    "readout-kind": "growth",
    "result": "109% (inactive)"
  },
  {
    "mol-smiles": "O=S(=O)(NCCNc1nccc(-c2c(-c3ccc(F)c(O)c3)nc3occn23)n1)c1ccc(Cl)cc1",
    "readout-kind": "growth",
    "result": "2.05% (active)"
  },
  {
    "mol-smiles": "CC(C)c1ccc(C(=O)Nc2nc3ccc(O)c(CN(C)C)c3s2)cc1",
    "readout-kind": "growth",
    "result": "71.4% (inactive)"
  },
  {
    "mol-smiles": "O=C(/C=C/c1cccc(Cl)c1)c1ccc(Nc2nc(Nc3ccc(F)cc3)nc(Nc3ccc(Cl)cc3)n2)cc1",
    "readout-kind": "growth",
    "result": "108% (inactive)"
  }
]

Now for another entry.
Request: For the record O=C(CSc1nc2ccc([N+](=O)[O-])cc2[nH]1)Nc1ccc([N+](=O)[O-])cc1 , what value of growth is listed for MALME-3M melanoma?
Response: 1.83% (active)

Ref: PubChem BioAssay (NCI)
